- system: GABA-A receptor; alpha-5/beta-3/gamma-2 (Homo sapiens) (UniProt P18507+P28472+P31644)
- assay-notes: Percentage modulation of GABA EC20 against human GABA-A receptor alpha-5-beta-3-gamma-2 subunits expressed in Xenopus laevis oocytes
- Type: cell-based
- experimental-conditions: Oocyte
Label yes (1) when Efficacy is at or above -30%; otherwise label no (0).

Threshold query (Efficacy >= -30%) on CC1(C)CC(=O)c2c(SCCO)sc(-c3ccccn3)c2C1 no (0)

Threshold query (Efficacy >= -30%) on CSc1sc(-c2cccnc2)c2c1C(=O)CC(C)(C)C2 no (0)

Threshold query (Efficacy >= -30%) on CSc1sc(-c2ccccn2)c2c1C(=O)CC(C)(C)C2 no (0)

Threshold query (Efficacy >= -30%) on CC1(C)CC(=O)c2c(SCCO)sc(-c3nccs3)c2C1 no (0)

Threshold query (Efficacy >= -30%) on CSc1sc(-c2cc[nH]n2)c2c1C(=O)CC(C)(C)C2 yes (1)

Threshold query (Efficacy >= -30%) on CCc1c(C(=O)OC)ncc2[nH]c3cc(OC)c(OC)cc3c12 no (0)

Just for reference, ChEMBL document CHEMBL1135580 is where these values come from.
